# IC50 values compiled below
Biological target: ENaC (Mus musculus, UniProt Q61180+Q9WU38+Q9WU39)
Construct: Mouse kidney M-1 cells were cultivated in DMEM containing 5% FCS and 5µM dexamethasone; endogenous in cells
Sequence (Q61180 whole entry): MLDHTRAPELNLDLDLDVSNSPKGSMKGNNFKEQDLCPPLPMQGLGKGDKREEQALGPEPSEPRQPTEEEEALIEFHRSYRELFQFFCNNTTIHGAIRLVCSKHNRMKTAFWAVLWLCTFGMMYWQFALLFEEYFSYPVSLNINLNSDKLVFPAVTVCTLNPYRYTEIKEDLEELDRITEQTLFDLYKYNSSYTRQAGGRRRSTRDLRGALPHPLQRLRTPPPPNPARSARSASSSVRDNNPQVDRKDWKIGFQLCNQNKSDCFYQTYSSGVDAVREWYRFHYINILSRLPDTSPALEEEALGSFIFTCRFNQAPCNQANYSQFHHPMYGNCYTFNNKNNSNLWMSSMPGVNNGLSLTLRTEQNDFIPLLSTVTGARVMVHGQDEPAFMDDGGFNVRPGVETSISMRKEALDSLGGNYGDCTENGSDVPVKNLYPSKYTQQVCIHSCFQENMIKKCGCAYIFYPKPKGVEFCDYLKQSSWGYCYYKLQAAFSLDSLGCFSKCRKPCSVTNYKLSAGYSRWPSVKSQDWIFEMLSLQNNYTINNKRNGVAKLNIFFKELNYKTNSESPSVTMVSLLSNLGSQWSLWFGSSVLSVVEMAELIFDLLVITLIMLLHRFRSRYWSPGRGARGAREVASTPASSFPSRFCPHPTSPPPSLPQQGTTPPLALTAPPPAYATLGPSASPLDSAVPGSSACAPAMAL
Sequence (Q9WU38 whole entry): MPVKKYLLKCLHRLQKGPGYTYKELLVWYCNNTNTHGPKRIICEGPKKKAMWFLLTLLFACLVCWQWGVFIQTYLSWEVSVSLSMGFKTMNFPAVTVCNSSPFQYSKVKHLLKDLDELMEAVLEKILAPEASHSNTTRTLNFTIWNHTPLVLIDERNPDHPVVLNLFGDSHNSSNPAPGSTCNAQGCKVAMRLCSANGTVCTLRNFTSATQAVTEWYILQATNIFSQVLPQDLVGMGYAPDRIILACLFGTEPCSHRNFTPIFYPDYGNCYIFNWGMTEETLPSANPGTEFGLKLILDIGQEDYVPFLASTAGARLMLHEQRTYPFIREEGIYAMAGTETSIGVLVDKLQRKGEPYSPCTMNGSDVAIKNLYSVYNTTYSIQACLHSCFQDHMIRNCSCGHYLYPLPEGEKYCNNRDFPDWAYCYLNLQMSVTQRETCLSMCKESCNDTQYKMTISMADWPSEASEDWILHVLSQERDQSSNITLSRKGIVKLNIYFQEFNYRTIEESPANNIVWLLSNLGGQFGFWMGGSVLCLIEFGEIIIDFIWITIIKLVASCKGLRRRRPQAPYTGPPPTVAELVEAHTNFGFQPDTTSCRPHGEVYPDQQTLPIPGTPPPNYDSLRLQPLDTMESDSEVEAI
Sequence (Q9WU39 whole entry): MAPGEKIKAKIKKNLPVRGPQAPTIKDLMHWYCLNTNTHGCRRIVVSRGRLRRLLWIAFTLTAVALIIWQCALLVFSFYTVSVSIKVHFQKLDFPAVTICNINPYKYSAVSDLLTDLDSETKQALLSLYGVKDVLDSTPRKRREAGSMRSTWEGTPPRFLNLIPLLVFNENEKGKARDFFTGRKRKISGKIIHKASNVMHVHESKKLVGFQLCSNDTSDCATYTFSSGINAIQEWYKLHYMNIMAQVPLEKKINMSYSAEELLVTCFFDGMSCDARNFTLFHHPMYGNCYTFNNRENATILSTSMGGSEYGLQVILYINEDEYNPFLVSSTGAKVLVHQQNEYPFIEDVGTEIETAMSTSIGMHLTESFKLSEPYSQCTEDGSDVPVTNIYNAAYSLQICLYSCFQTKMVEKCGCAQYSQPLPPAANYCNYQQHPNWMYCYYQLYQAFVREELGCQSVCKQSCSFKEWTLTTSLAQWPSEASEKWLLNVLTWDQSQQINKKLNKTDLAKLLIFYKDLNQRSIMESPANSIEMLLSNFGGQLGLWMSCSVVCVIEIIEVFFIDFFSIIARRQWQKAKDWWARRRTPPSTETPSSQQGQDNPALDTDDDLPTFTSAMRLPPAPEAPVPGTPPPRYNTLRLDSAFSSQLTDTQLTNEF
Assay: Ussing Chamber assay (short circuit current, amiloride sensitive I_SC)
Settings: Mouse kidney M-1 cells, apical administration, 37°C
Write the answer as a number in nM, unit excluded.

COMPOUND	TEST SYSTEM	SCALE UNIT	ASSAY VALUE
CCn1c(CNC(=O)c2nc(Cl)cnc2N)[n+](CC)c2ccc(OCC(=O)NCCCN)cc21 [Example 2.01]	ENaC (Mus musculus, UniProt Q61180+Q9WU38+Q9WU39)	nM	1

Would you kindly look at the next entry?
**Query** Which IC50 value is on record for CCOCCN1CCC(NC(=O)COc2ccc3c(c2)n(CC)c(CNC(=O)c2nc(Cl)cnc2N)[n+]3CC)CC1 [Example 2.07] ?
**Result** 3
